# measured.on: T1, Recombinant human MMR (R&D systems) (human, UniProt P22897 19-1383)
# T1 construct: Bought protein (R&D Systems #2534) coated on ELISA plates; also called hMMR; MRC1
# T1 sequence: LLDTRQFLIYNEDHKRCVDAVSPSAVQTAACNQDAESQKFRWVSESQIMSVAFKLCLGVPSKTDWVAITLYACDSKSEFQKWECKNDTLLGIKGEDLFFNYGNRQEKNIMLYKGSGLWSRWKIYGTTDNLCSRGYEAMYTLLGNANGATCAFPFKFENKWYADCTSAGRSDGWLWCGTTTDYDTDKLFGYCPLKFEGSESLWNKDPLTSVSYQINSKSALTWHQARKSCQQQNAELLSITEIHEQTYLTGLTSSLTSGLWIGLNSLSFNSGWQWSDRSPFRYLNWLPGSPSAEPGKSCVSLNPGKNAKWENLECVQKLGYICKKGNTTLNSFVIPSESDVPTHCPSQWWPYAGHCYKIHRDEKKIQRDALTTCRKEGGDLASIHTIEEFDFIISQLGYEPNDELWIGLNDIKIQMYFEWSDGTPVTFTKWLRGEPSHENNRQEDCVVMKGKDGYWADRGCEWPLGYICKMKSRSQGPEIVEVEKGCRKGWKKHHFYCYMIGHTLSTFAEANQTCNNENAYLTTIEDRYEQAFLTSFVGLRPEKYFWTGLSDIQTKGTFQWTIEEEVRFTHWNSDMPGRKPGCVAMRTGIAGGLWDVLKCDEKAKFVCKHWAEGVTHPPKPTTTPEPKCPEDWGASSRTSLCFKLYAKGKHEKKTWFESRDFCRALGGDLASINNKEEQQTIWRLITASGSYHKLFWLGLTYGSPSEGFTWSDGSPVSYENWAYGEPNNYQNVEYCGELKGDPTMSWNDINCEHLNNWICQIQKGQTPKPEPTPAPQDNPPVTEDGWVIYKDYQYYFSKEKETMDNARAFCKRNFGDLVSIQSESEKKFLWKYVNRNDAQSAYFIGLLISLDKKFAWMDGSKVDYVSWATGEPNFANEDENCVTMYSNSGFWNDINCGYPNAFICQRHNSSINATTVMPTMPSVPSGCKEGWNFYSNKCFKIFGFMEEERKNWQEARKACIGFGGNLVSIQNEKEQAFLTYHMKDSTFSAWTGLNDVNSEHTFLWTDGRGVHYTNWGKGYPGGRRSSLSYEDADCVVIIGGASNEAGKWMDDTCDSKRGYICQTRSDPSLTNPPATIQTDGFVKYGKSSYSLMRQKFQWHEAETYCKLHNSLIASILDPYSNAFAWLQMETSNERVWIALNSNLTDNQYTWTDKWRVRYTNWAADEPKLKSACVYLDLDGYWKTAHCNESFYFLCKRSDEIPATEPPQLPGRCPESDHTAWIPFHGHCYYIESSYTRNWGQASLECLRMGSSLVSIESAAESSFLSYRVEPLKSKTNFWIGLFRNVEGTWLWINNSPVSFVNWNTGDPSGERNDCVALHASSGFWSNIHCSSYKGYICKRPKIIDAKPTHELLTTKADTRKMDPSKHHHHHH
# assay.summary: PE-ELISA, periplasmic extract on coated human MMR, OD405 at least 3x over milk-blocking proteins
readout.type: binding result

{"columns": ["binder", "endpoint.value"],
 "data": [
  ["NbhMMRm16.95 (VHH, Tested as a periplasmic extract in PE-ELISA) VHH: QVQLQESGGGLVQPGGSLGLSCAASGRIASISAMGWYRQAPGKQRELVAAITGSGRTNYADSVKGRFTISRDNAKNTVYLQMNSLKPEDTAVYYCNLLMVDYGLGLGTDYWGQGTQVTVSS", "binds"],
  ["NbhMMRm10.19 (VHH, Tested as a periplasmic extract in PE-ELISA) VHH: QVQLQESGGGLVQPGGSLKLSCAASGSIFSIKTMGWYRQAPGKQRELVAAITSGGSTNYADSVKGRFTISRDNAKNTVYLQMNSLKPEDTAVYYCNADGVVAWDQPYDNYWGQGTQVTVSS", "binds"]
]}
